- Test system: H9c2;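 note: cell death induced by hydrogen peroxide oxidative stress; compound pretreatment for 60 min then peroxide exposure for 2 h; potency is for protecting the cells against peroxide damage rather than for killing them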;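 note: confirmatory concentration-response retest of ultra-high-throughput screening hits for modulation of myocardial damage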
- Method: cells
- Type: functional, cell-based
- Setup conditions: Rattus norvegicus, H9c2, Myocardium
Activity calls are given as the source filed them. Cut-off read from the data, not from the text of the source: active = IC50 of 30 µM or less and inactive = more.
Labels: active, inactive

>>> df
                                   molecule  class_assignment
0  O=C(NCCc1ccccc1Cl)c1ccc2nc3ccccc3c(=O)n2c1          inactive
1  COc1ccccc1CN(C)C(=O)c1cc(-c2cc(OC)c(OC)c(OC)c2)nc2ccccc12            active
2  Cc1ccc(CN(C(=O)CNC(=O)c2cccs2)C(C(=O)NCC2CCCO2)c2ccccc2)cc1 (stereo not given)          inactive
3  CCc1nnc(NC(=O)CSc2nnc(CNc3ccc(OC)cc3)n2C)s1            active
4  CCc1ccc(C(C)NC(=O)c2cc(C)oc2C)cc1 (stereo not given)          inactive
